- system-tested: PRKCH (human)
- experiment-summary: radiometric filter-binding kinase assay, Kinase HotSpot
- cond: compound 0.5 µM; ATP 10 µM
reported-endpoint: residual activity (%)
Dear colleague, please return just the value in %, with no unit written.

Some solved cases for reference:
>  <compound>
Cc1cc(Nc2cc(N3CCN(C)CC3)nc(Sc3ccc(NC(=O)C4CC4)cc3)n2)[nH]n1

>  <measure-unit>
%

>  <meas-value>
111

$$$$
>  <compound>
CSc1nc(-c2ccc(F)cc2)c(-c2ccnc(NC(C)c3ccccc3)c2)[nH]1 (centres undefined)

>  <measure-unit>
%

>  <meas-value>
94.5

$$$$
>  <compound>
Nc1nc(Nc2ccc(S(N)(=O)=O)cc2)nn1C(=O)c1c(F)cccc1F

>  <measure-unit>
%

>  <meas-value>
100

$$$$

// next entry
Query (compound): `NC(=O)c1ccc(-c2nc(-c3ccccn3)c(-c3ccc4c(c3)OCCO4)[nH]2)cc1` ; field requested: residual activity
83.3

Where do the numbers come from? From the kinase profiling compilation of Christmann-Franck et al. (2016).
